target: Cytochrome P450 2C9 (Homo sapiens)
Sequence (P11712 whole entry): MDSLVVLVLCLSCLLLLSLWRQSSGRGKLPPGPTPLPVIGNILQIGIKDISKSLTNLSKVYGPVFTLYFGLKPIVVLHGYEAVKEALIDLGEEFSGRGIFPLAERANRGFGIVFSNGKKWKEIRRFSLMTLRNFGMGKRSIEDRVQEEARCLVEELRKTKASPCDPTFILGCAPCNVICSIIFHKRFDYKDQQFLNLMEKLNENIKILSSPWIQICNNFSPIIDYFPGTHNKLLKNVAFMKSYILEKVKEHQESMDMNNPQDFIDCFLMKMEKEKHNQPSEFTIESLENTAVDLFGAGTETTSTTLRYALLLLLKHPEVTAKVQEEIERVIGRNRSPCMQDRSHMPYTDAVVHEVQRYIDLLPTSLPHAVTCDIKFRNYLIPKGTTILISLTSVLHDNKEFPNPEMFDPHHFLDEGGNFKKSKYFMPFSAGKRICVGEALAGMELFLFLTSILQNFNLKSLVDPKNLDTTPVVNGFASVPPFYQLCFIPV
This section presents compounds with their documented AC50 values.

Ask: Item CC1=C(C(=O)N2CCCCCC2)C2(CCC(C)CC2)OC1=O (stereo unspecified) has what recorded AC50?
Result: 28.2 µM (inconclusive)

Ask: Now give it for O=C1CN=C(Nc2ccc(Cl)cc2)N1c1ccccc1 too.
Result: 0.00562 µM (inconclusive)

Ask: Now give it for COc1ccc(CNc2nc(-c3cccc(C#N)c3)nc3ccccc23)c(OC)c1 too.
Result: 1 µM (inconclusive)

// moving on: another record for AC50
Ask: Item FC(F)(F)c1nnc2c(Sc3ccccc3)nc3ccc(Cl)cc3n12 has what recorded AC50?
Result: 8.91 µM (inconclusive)

---

This section presents compounds with their documented EC50 values.
tested on: BJ; assay: BJ-TERT fibroblast viability loss – cell-based, RAS-independent, luminescence, dose response (AID 1933); type: functional; settings: Homo sapiens
Active and inactive are the calls of the source.

# example entries with known answers
Ask: Request - read-out EC50 | tested on BJ | compound O=C(CCl)/N=c1\sccn1Cc1ccccc1Cl
Result: 0.403 µM (inconclusive)

Ask: Now give it for CCN(CC)CCNc1cc(C)nc2c1C(=O)C(=O)C=C2N1CCCCC1 too.
Result: 5.91 µM (inconclusive)

Ask: Now give it for CCCC(=O)Nc1ccc(C(=O)N/N=C/c2ccc([N+](=O)[O-])o2)cc1 too.
Result: 17.2 µM (active)

Ask: Now give it for Cn1ncc2c(ON=C(N)c3ccc(C(C)(C)C)cc3)ncnc21 too.
Result: 1.32 µM (active)

// moving on: another record for EC50
Ask: Request - read-out EC50 | tested on BJ | compound COC(=O)N1CCc2c(sc(NC(=O)C3=COCCO3)c2C#N)C1
Result: 8.87 µM (inconclusive)

---

This section presents molecules with their documented AC50 values.
Target: Adenosylmethionine-8-amino-7-oxononanoate aminotransferase (Mycobacterium tuberculosis, UniProt P9WQ81)
Sequence (P9WQ81 whole entry): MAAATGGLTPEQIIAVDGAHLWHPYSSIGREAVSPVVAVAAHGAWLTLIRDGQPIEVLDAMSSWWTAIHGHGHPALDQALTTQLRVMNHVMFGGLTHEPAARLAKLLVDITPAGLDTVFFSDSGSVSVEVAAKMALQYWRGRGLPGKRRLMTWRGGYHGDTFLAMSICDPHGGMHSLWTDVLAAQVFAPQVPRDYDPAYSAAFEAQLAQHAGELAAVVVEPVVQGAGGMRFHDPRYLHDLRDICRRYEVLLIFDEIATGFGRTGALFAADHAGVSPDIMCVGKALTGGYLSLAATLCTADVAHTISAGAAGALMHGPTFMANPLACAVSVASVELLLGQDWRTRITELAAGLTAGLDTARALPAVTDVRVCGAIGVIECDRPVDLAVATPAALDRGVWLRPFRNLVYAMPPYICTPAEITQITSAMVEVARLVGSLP
Assay: Mycobacterium tuberculosis BioA enzyme inhibitor Measured in Biochemical System Using Plate Reader - 2163-02_Inhibitor_Dose_CherryPick_Activity.
Format: functional, Mycobacterium tuberculosis UT205
Active and inactive are the calls of the source.

# example entries with known answers
Ask: Item O=C(Nc1ncc2c(n1)CC(c1ccco1)CC2=O)c1ccco1 (stereo unspecified) has what recorded AC50?
Result: 6.29 µM (active)

Ask: Now give it for Cc1ccc(/C=C(\CCC(=O)O)c2nc3ccccc3s2)cc1[N+](=O)[O-] too.
Result: 0.153 µM (active)

Ask: Now give it for Cc1cc(C)n(-c2ccc(C(=O)Nc3ccc4c(c3)OCO4)cc2)n1 too.
Result: 4.31 µM (active)

Ask: Now give it for CCc1c(C(=O)NCCc2ccc(OC)c(OC)c2)[nH]c(C)c1C(C)=O too.
Result: 3.74 µM (active)

Ask: Now give it for COc1ccc(-c2ccc3c(c2)[C@H]2[C@H](CCN2C(=O)Cc2cccnc2)[C@H](CO)N3C)cc1 too.
Result: 1.57 µM (active)

// moving on: another record for AC50
Ask: Item COc1ccc(C(=O)Nc2ccc(Cn3ccnc3)cc2)cc1OC has what recorded AC50?
Result: 7.74 µM (active)

---

target: Delta-type opioid receptor (Homo sapiens, UniProt P41143); test: HTS Image-Based Screen for Antagonists of the DOR Receptor. [Related pubchem assays (depositor defined):AID1777, AID1785, AID1786, AID2133]; format: functional;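 further: U2OS cells expressing DOR stimulated with 100 nM SNC80 agonist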
Sequence (P41143 whole entry): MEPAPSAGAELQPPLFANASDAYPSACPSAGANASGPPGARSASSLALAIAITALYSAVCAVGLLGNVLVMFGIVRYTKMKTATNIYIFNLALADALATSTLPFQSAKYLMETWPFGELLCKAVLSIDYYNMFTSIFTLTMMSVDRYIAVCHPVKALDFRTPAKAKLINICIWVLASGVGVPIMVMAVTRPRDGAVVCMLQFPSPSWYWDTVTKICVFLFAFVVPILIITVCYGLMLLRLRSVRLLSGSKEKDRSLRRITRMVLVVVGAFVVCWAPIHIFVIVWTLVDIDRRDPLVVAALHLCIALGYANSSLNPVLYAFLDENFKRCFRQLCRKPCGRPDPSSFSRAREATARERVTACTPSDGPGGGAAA
Calls of active or inactive are those of the source.
READOUT_TYPE: IC50

# example entries with known answers
Ask: Item N#Cc1ccc(-c2cccnc2)nc1SCC(=O)Nc1sc2c(c1C#N)CCC2 has what recorded IC50?
Result: > 32 µM (inactive)

Ask: Now give it for CCCCN(CCCNC(=O)C1CCN(S(=O)(=O)N2CCOCC2)CC1)c1ccccc1 too.
Result: > 32 µM (inactive)

More entries:
Ask: Item COc1cc(OC)c(OC)cc1CCC(C)NCCC(c1ccccc1)c1ccccc1 (centres undefined) has what recorded IC50?
Result: 24.4 µM (inactive)

Ask: Now give it for Cc1cc(OCC(=O)Nc2ccc(S(=O)(=O)N3CCN(C)CC3)cc2)cc(C)c1Cl too.
Result: > 32 µM (inactive)

---

This section presents molecules with their documented IC50 values.
target: Major prion protein (Homo sapiens, UniProt P04156); type: functional, cell-based
Activity calls are given as the source filed them.

# example entries with known answers
Ask: Item Cc1cc(Br)c2nc3c(c(C(=O)O)c2c1)CCCCC3 has what recorded IC50?
Result: 0.141 µM (active)

Ask: Now give it for Cc1ccc(-n2nc3c(=S)[nH]nc(C)c3c2C)cc1 too.
Result: 0.143 µM (active)

Ask: Now give it for O=C(NC(=S)NCCO)c1sc2ccccc2c1Cl too.
Result: 3.4 µM (active)

Ask: Now give it for Cc1nn(C)cc1CN(C)C(=O)c1cc(-c2ccccc2)nc2ccc(Br)cc12 too.
Result: 6.12 µM (active)

Ask: Now give it for Cc1cc(NC(=O)COc2ccc3ccccc3c2Br)no1 too.
Result: 1.39 µM (active)

// moving on: another record for IC50
Ask: Item Brc1cc2[nH]cnc2c2ccccc12 has what recorded IC50?
Result: 5.96 µM (active)

---

This section presents compounds with their documented pIC50 values.
target: Kappa-type opioid receptor (Homo sapiens, UniProt P41145); format: functional
Sequence (P41145 whole entry): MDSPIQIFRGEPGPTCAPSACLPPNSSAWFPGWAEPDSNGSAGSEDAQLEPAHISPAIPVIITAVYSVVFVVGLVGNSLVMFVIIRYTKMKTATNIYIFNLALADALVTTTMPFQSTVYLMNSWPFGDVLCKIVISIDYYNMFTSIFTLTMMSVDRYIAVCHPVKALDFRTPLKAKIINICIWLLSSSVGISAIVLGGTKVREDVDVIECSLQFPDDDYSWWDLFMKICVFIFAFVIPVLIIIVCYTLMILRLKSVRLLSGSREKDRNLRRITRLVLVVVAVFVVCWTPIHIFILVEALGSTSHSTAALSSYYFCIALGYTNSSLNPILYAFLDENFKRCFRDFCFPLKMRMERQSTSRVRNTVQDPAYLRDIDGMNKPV
pIC50: −log10 of the molar value.

# example entries with known answers
Ask: Item Cc1cccnc1Nc1nc(-c2ccccn2)cs1 has what recorded pIC50?
Result: < 4.49

Ask: Now give it for Cc1cc(OCC(=O)Nc2ccc(S(=O)(=O)N3CCN(C)CC3)cc2)cc(C)c1Cl too.
Result: < 4.49

Ask: Now give it for CCCCN(CCCNC(=O)C1CCN(S(=O)(=O)N2CCOCC2)CC1)c1ccccc1 too.
Result: 5.34

More entries:
Ask: Item O=C(N/N=C(\c1ccccc1)c1cccnc1)c1cccc(F)c1 has what recorded pIC50?
Result: < 4.49

Ask: Now give it for COc1cc(OC)c(OC)cc1CCC(C)NCCC(c1ccccc1)c1ccccc1 (stereo not given) too.
Result: < 4.49

---

biological target: CAAX prenyl protease 2 (Saccharomyces cerevisiae S288c); format: biochemical
Sequence (Q03530 whole entry): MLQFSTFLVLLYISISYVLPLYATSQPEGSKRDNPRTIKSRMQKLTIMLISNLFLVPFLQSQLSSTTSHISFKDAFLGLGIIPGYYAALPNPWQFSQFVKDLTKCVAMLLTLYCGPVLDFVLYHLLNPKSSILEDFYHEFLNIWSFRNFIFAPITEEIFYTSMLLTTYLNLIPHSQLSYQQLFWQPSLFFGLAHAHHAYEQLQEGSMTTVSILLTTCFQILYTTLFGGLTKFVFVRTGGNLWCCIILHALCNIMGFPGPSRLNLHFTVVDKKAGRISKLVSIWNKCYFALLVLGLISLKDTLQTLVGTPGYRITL
Active and inactive are the calls of the source.
READOUT_TYPE: AC50

# example entries with known answers
Ask: Item CCN(CC)Cc1c(O)ccc2c(=O)c(-c3ccccc3OC)coc12 has what recorded AC50?
Result: 13.8 µM (active)

Ask: Now give it for CS(=O)(=O)c1ccc(C(=O)OCC(=O)N(CCc2ccccc2)Cc2ccccc2)cc1 too.
Result: 7.85 µM (active)

Ask: Now give it for Cc1cc(NC(=O)c2oc3ccccc3c2C)ccc1-n1cnnn1 too.
Result: 0.558 µM (active)

// moving on: another record for AC50
Ask: Item Cc1cccc(-c2nnc(SCc3ccc(C#N)cc3)n2Cc2ccco2)c1 has what recorded AC50?
Result: 0.963 µM (active)

---

This section presents compounds with their documented EC50 values.
assay: cells; type: functional, cell-based
Active and inactive are the calls of the source.

# example entries with known answers
Ask: Item O=C(CN1CCCc2ccccc21)N/N=C/c1c(O)ccc2ccccc12 has what recorded EC50?
Result: > 350 µM (not active)

Ask: Now give it for CC(NC(=O)c1cc2c(s1)CS(=O)(=O)C2)c1ccccc1 (stereo not given) too.
Result: > 350 µM (not active)

Ask: Now give it for O=C(Nc1cccc(Cl)c1)Nc1cccc(C(=O)O)c1 too.
Result: 7.49 µM (active)

Ask: Now give it for CC(=O)Nc1nc(C)c(-c2csc(Nc3ccccn3)n2)s1 too.
Result: 5.87 µM (active)

// moving on: another record for EC50
Ask: Item COc1ccc(CC(=O)NN=C(S)NCC2CC2)cc1OC has what recorded EC50?
Result: > 350 µM (not active)
